- System: DFO2036
- ASSAY_EXPLANATION: qHTS profiling for inhibitors of Plasmodium falciparum proliferation (AID 504749); note: nearly all actives have a fitted effect of over 60% in size
- COND: P. falciparum in erythrocytes, SYBR Green DNA, 72 h; series mostly up to 28.7 µM
Inconclusive results are not listed. Calls of active or inactive are those of the source. Calls come from the whole dose curve; as a rule, active = well fitted inhibition curve with a large enough effect; inconclusive = small, poorly fitted or top-dose-only effect; inactive = flat fitted curve, though single readings scatter.
Outcome field: choose from y = active, n = inactive

COMPOUND | ASSAY_TARGET | CLASS_LABEL
Oc1cccc(O)c1 | DFO2036 | n

Q: Call for entry Oc1cn2c(n1)Nc1ccc(Cl)c(Cl)c1C2 :
Ans: n

Q: Call for entry CCCCN(CCCC)CCCOC(=O)c1ccc(N)cc1 :
Ans: n

Q: Call for entry CN1CCN(C2Cc3ccccc3Sc3ccc(Cl)cc32)CC1 (centres undefined) :
Ans: n

====

- Tested on: CAOV3
- ASSAY_EXPLANATION: Primary qHTS to identify gynecologic anti-cancer compounds using libraries of approved drugs and bioactive compounds (AID 1345084); note: nearly all actives have a fitted effect of over 55% in size
- COND: Gynecologic cancer cell panel viability, ATPlite luminescence, 48 h; series mostly up to 57.5 µM
Inconclusive results are not listed. Active and inactive are the calls of the source. The call rests on the fitted dose curve; in most records, active means well fitted cell-killing curve with a large enough effect; inconclusive means small, poorly fitted or top-dose-only effect, or effect the other way; inactive means flat fitted curve, though single readings scatter.
READOUT_NAME: Potency

Would you please look over these solved cases?
COMPOUND | Potency
Cn1cc[nH]c1=S | inactive
Cn1c(=O)c2c(ncn2CC2OCCO2)n(C)c1=O | inactive
CC(COc1ccccc1)NC(C)C(O)c1ccc(O)cc1 (stereo not drawn) | inactive
O=C1O[C@H]([C@@H](O)CO)C(O)=C1O | inactive
CCN(CC)CCSC(=O)C(c1ccccc1)c1ccccc1 | inactive

Q: Any idea what its Potency is? The compound is Oc1cn2c(n1)Nc1ccc(Cl)c(Cl)c1C2
Ans: inactive

Q: Any idea what its Potency is? The compound is CC1(C)OC(=O)NC1=O
Ans: inactive

Q: Any idea what its Potency is? The compound is CC1(C)CO[C@@H](CC(=O)O)CN1
Ans: inactive

====

- Test system: 3D7
- ASSAY_EXPLANATION: qHTS profiling for inhibitors of Plasmodium falciparum proliferation (AID 504749); note: nearly all actives have a fitted effect of over 60% in size
- COND: P. falciparum in erythrocytes, SYBR Green DNA, 72 h; series mostly up to 28.7 µM
Results filed as inconclusive are left out. Activity calls are given as the source filed them. Calls come from the whole dose curve; as a rule, active = well fitted inhibition curve with a large enough effect; inconclusive = small, poorly fitted or top-dose-only effect; inactive = flat fitted curve, though single readings scatter.
Outcome field: choose from 1.0 = active, 0.0 = inactive

COMPOUND | ASSAY_TARGET | CLASS_LABEL
CCN(CC)CCNC(=O)c1c(C)[nH]c(/C=C2\C(=O)Nc3ccc(F)cc32)c1C | 3D7 | 1.0

Q: Call for entry NC(=O)NC(=O)Cc1ccccc1 :
Ans: 0.0

Q: Call for entry O=C(O)COc1nn(Cc2ccccc2)c2ccccc12 :
Ans: 0.0

Q: Call for entry COc1cc(C)c(Cc2cnc(N)nc2N)cc1OC :
Ans: 1.0

Q: Call for entry CC1(C)[C@@H]2CC[C@@]1(C)C(=O)C2 :
Ans: 0.0

====

- ASSAY_EXPLANATION: qHTS for differential inhibitors of proliferation of Plasmodium falciparum line W2 (AID 1883);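 note: parasites grown with compound for 72 h before lysis and staining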; note: potency is the fitted concentration of half-maximal effect
- COND: Plasmodium falciparum W2 proliferation inhibition; series mostly up to 28.7 µM
Inconclusive results are not listed. Calls of active or inactive are those of the source. Calls follow the shape of the dose curve; as a rule, active = well fitted curve in the direction sought with a large enough effect; inconclusive = small, poorly fitted or top-dose-only effect, or another doubt; inactive = no such curve, though single readings can be large or run the other way.
READOUT_NAME: Potency

Would you please look over these solved cases?
MOLECULE | RESULT_VALUE
NC1CCN(c2cccc(Cl)n2)CC1 | 5.62 µM (active)
CNCC(O)c1ccc(O)c(O)c1 (stereo not drawn) | 14.1 µM (active)
CSc1ccc2c(c1)C(N1CCN(C)CC1)Cc1ccccc1S2 (stereo not drawn) | 4.47 µM (active)
CN(C)CCCN1c2ccccc2Sc2ccc(Cl)cc21 | 3.55 µM (active)
CCCn1cnc2c1c(=O)n(CCCCC(C)=O)c(=O)n2C | 12.6 µM (active)

Q: Any idea what its Potency is? The molecule is C=Cc1c(C)c2cc3[nH]c(cc4nc(cc5nc(cc1[nH]2)C(C)=C5CCC(=O)O)C(CCC(=O)O)=C4C)c(C)c3C=C
Ans: inactive

Q: Any idea what its Potency is? The molecule is NC(N)=NCCC[C@H](N)C(=O)O
Ans: inactive

Q: Any idea what its Potency is? The molecule is CNCCCC1c2ccccc2C=Cc2ccccc21
Ans: 4.47 µM (active)

Q: Any idea what its Potency is? The molecule is O=C1N=C(O)CN1/N=C/c1ccc(-c2ccc([N+](=O)[O-])cc2)o1
Ans: 7.08 µM (active)

Q: Any idea what its Potency is? The molecule is CN(C)CC[C@@H](c1ccc(Cl)cc1)c1ccccn1
Ans: 1 µM (active)

Q: Any idea what its Potency is? The molecule is CCN(CC)CCOC(=O)C1(C2CCCCC2)CCCCC1
Ans: 5.62 µM (active)

Q: Any idea what its Potency is? The molecule is CC(C(O)c1ccc(O)cc1)N1CCC(Cc2ccccc2)CC1 (stereo not drawn)
Ans: 2.82 µM (active)

Q: Any idea what its Potency is? The molecule is CSc1ccc2c(c1)N(CCC1CCCCN1C)c1ccccc1S2 (stereo not drawn)
Ans: 5.01 µM (active)
